Test system: MS2 coat protein
Assay: apparent KD of MS2 coat protein; designed switch direction (-1 OFF switch, 1 ON switch): -1; higher = weaker reporter binding
Details: input ligand: none
Class definitions on apparent KD of MS2 coat protein: class A = under 20 nM, class B = from 20 nM up to 60 nM, class C = 60 nM and over

>  <Sequence Record>
CCUCUGUUAGGAUAUGGCAAAGAUGAGACACACCGACAUUGUUAGAAGGGACAUGAGGAUCACCCAUGUCAGCG [Eternabot (L1) Solution 57] (Eterna round: R97, puzzle: Exclusion 4)

>  <Discrete Label>
class B

$$$$
>  <Sequence Record>
UAUUAGCAAGCGAGAUCCCACAUGAGGAUCACCCAUGUGCUCGUCUUAUAAGGUACUGUGACGAUAGUCACGGUACC [Mat - Sensor, turn-off var - Eli Mod - D16] (Eterna round: R97, puzzle: Sensor, turn-off variant 1)

>  <Discrete Label>
class A

$$$$
>  <Sequence Record>
GCACGGAGUGUAGGAUAUUAGUGCGAUUAGCACUGAGAAGGACAUGAGGAUCACCCAUGUUCCUCUAAAAUUAGCCUUCCGUGC [Eli exng1 - 036] (Eterna round: R96, puzzle: Exclusion NG 1)

>  <Discrete Label>
class A

$$$$
>  <Sequence Record>
GUAUAAUGAGUCAGGAUAUUGAUGACGCUAGGACACAAGAAGGGACAUGAGGAUCACCCAUGUUAUUAUGCGGU [Eternabot (L2) Solution 29] (Eterna round: R97, puzzle: Brourd's mod of Exclusion 4)

>  <Discrete Label>
class C

$$$$
>  <Sequence Record>
UAUUAGCAAGCGAGAUCCCACAUGAGGAUCACCCAUGUGCUCGUCUUAUAAAGUACUGUGACGAAAGUCACGGUACA [Sensor 3, v1 - 91 v3] (Eterna round: R97, puzzle: Sensor, turn-off variant 1)

>  <Discrete Label>
class A

$$$$
>  <Sequence Record>
GGGUGUGAAGGAUAUACAUGAGGAUCACCCAUGUGAGAGGAGGAGGUUGAGGAGGUUGGUAGAAGGUCAGGAGG [JR_Exclusion3_Sub011] (Eterna round: R96, puzzle: Exclusion 3)

>  <Discrete Label>
class C

$$$$
>  <Sequence Record>
GGUCAGACGGUAGGAUAUCCAUAUCGAGUGACUCUUUCAUAACAUGAGGAUCACCCAUGUCGGUGGGAGAAGGGCCGUACGGCG [salish99_ExNG02_R04_005] (Eterna round: R96, puzzle: Exclusion NG 2)

>  <Discrete Label>
class B

$$$$
>  <Sequence Record>
GAUUCGCGAGGAUAUACAGUCGAGUCCAUUACGUGUCUCGGACUUGAGGAUCACCCAAGUAGAAGGCGUCUCAU [salish99_ex2_r4_637] (Eterna round: R97, puzzle: Exclusion 2)

>  <Discrete Label>
class B

$$$$
>  <Sequence Record>
UGUAAGCUAGGAUAUGCUUUGGGAAAGCAUUCCUUCGAUAAACUUGAGGAUCACCCAAGUAGAAGGAGCUUACA [salish99_ex2_r4_005] (Eterna round: R97, puzzle: Exclusion 2)

>  <Discrete Label>
class A

$$$$
>  <Sequence Record>
UGAUUGAUUAACAGAUUAUACAUGAGGAUCACCCAUGUAGGUCCUACGUGCACUUUAUGCAGCUCGUCUUAUUCCCA [Sensor-V1 #71] (Eterna round: R97, puzzle: Sensor, turn-off variant 1)

>  <Discrete Label>
class B

$$$$
>  <Sequence Record>
ACAUGAGGAUCACCCAUGUACAGGGUUUAGUUUCAUCGUUUGAAGGAUAUACUCCGUUAGUUGUUGUAGAAGGUCACAUUUUGG [JR_ExcNG3_Sub005] (Eterna round: R96, puzzle: Exclusion NG 3)

>  <Discrete Label>
class C

$$$$
>  <Sequence Record>
GCUCGUCUUGUAAUGUUUAACAUGAGGAUCACCCAUGUCACCAACGUCGGAGAUGCAGGUUCAUGUUUUAAUGUAUA [Eternabot (L2) Solution 23] (Eterna round: R97, puzzle: Sensor, turn-off variant 1)

>  <Discrete Label>
class C

$$$$
>  <Sequence Record>
GAUGUCCAGCGAGGAUAUCUGGUAAAUAAAAUGAGAGAAGGCGCGAAGACAUGAGGAUCACCCAUGUUGUCGCAUGGGAGCCUG [Enqurete] (Eterna round: R96, puzzle: Exclusion NG 1)

>  <Discrete Label>
class B

$$$$
>  <Sequence Record>
UUACGAUUGCUAGGAUAUCCACGAAUAGCUCCGGGAGAAGGAGCUCUCGUACAUGAGGAUCACCCAUGUCAGGGUGUCCAAUUU [Onraedin] (Eterna round: R96, puzzle: Exclusion NG 1)

>  <Discrete Label>
class B

$$$$
>  <Sequence Record>
GCAGCGUAUGUAGGAUAUCGGUCAGUUUCUGAUCGAGAAGGACAUGAGGAUCACCCAUGUAUUAUCAUGCGUGAGCAUGGCUGC [JL ENG1 3.71] (Eterna round: R96, puzzle: Exclusion NG 1)

>  <Discrete Label>
class C

$$$$
>  <Sequence Record>
UAUUAGCAAGUGAGAUCCCACAUGAGGAUCACCCAUGUGCUCGUCUUAUAACGUACUGUGAGGAAACUCACGGUACG [Sensor-V1 #83] (Eterna round: R97, puzzle: Sensor, turn-off variant 1)

>  <Discrete Label>
class B

$$$$
>  <Sequence Record>
GAAAAUGUGGAGGAUAUCGACUUCGAAAGAAGUCGAGAAGGCCACACAUGAGGAUCACCCAUGUGUGCCUUAAA [Omei Ex6 H3] (Eterna round: R97, puzzle: Exclusion 6)

>  <Discrete Label>
class A

$$$$

---

Test system: MS2 coat protein
Test: apparent KD of MS2 coat protein; designed switch direction (-1 OFF switch, 1 ON switch): 1; higher = weaker reporter binding
Settings: input ligand: none
// reported apparent KD of MS2 coat protein per item
Recorded Endpoint: apparent KD of MS2 coat protein

>  <Sequence Record>
UGUUGUAUUACAGGAUAUCUAGUAUUUGUAUUUAGAGAAGGGUAUUCACAUGAGGAUCACCCAUGUAUAUACGAGGAAGUUGUG [JMF's solution 42] (Eterna round: R96, puzzle: Same State NG 1)

>  <Result>
48.3 nM

$$$$
>  <Sequence Record>
GGUGCAAUUAACGCCUACAUGAGGAUCACCCAUGUAUGUAGGCAGGAUAUCGUUUGCAAAGCAAACGAGAAGGGCUGUAGUACC [Mat - Same State NG 3 - JL Mod - D40] (Eterna round: R96, puzzle: Same State NG 3)

>  <Result>
131 nM

$$$$
>  <Sequence Record>
GGUAAGAAUUAAGGAUAUUGAAUACAUAUGUUUAACAUGAGGAUCACCCAUGUGGGUUGCGGUGUCGAGAAGGUAAAUUACUAG [Mat - same State NG 2 - JL mod - D99] (Eterna round: R96, puzzle: Same State NG 2)

>  <Result>
229 nM

$$$$
>  <Sequence Record>
GCUAGAAAUAAAGCCAACAUGAGGAUCACCCAUGUAUGUUGGUAGGAUAUCGUUUGCAAAGCAAACGAGAAGGGCUAAUCUAGC [Mat - Same State NG 3 - JL Mod - D65] (Eterna round: R96, puzzle: Same State NG 3)

>  <Result>
69.8 nM

$$$$
>  <Sequence Record>
CUUGCCCAGUCAGGAUAUGGGAAAGGAAGUGUACCAGAAGGGACAAGAAAGGACAUGAGGAUCACCCAUGUCGGGCAGGCGAGA [PowerStrip SSNG 1.23] (Eterna round: R96, puzzle: Same State NG 1)

>  <Result>
97.1 nM

$$$$
>  <Sequence Record>
UGGUACAUGGGAGGAUAUCCUAUGGUGACAUGAGGAUCACCCAUGUAAUUGGAGCCGAAAGGCAUGGAGAAGGCCCAUGUACCU [JL SSNG1 3.78] (Eterna round: R96, puzzle: Same State NG 2)

>  <Result>
44.1 nM

$$$$
>  <Sequence Record>
GCGGAACGGGCCGACAUGAGGAUCACCCAUGUGGCCUCAUGUAAGGAUAUCGGGAAGAAGAAAACCGAGAAGGUACGGUGACGC [AK SSNG3-V2-31] (Eterna round: R96, puzzle: Same State NG 3)

>  <Result>
107 nM

$$$$
>  <Sequence Record>
GUGGUGGGUUGAGGAUAUUGGUUGUUGUUGUUUUACAUGAGGAUCACCCAUGUGGGUUGUGGUUUUGAGAAGGUUGGUUGCUGG [salish99_SSNG2_r04_048] (Eterna round: R96, puzzle: Same State NG 2)

>  <Result>
185 nM

$$$$
>  <Sequence Record>
UAGUUGGUGGUAGGAUAUGUAGGAUAUGGCGAGAGCUAAGCUUGGAAGUCACUUCAGCCAGAAGGACAGAAGGACCAGUAGCUU [pwkr ssNG2 2FMN + F9.10] (Eterna round: R96, puzzle: Same State NG 2)

>  <Result>
79.1 nM

$$$$
>  <Sequence Record>
GCUGGAAAUCACAUGAGGAUCACCCAUGUUCCGGAAACGGCACAGGAUAUCUGUCCGAAAAGGUCAGAGAAGGGUGAAACCAGC [Fiskers NG3ss - 85] (Eterna round: R96, puzzle: Same State NG 3)

>  <Result>
105 nM

$$$$
>  <Sequence Record>
AUCCGAACCAUAGGAUAUACUGGCCUCGGGCCAGUAGAAGGGUGGGACAUGAGGAUCACCCAUGUAAAGCACAAUCAGUGCAAA [Ceramace] (Eterna round: R96, puzzle: Same State NG 1)

>  <Result>
151 nM

$$$$
>  <Sequence Record>
ACUCAGUACAAUUUAGAUCUACAUGAGGAUCACCCAUGUACUGAGGAUAUCAGCUCGAAUAGAGCUGAGAAGGCAGUUGUACUA [SSNG3/10-A1] (Eterna round: R96, puzzle: Same State NG 3)

>  <Result>
248 nM

$$$$
>  <Sequence Record>
GCUAGAAUUAAAGCCAACAUGAGGAUCACCCAUGUAUGUUGGUAGGAUAUCGUUUGCUUUGCAAACGAGAAGGGCUAAACUAGC [JL SSNG3 1.06] (Eterna round: R96, puzzle: Same State NG 3)

>  <Result>
73.1 nM

$$$$
>  <Sequence Record>
ACAUGAGACCUAGGAUAUAUUGUACCUACAUGUGACAUGAGGAUCACCCAUGUGGUAAGUAUGACAUAGAAGGAGGAGAUAUGU [Equivalance 93 - Jieux - Same State NG 2] (Eterna round: R96, puzzle: Same State NG 2)

>  <Result>
54.7 nM

$$$$
>  <Sequence Record>
UAGCGCUGUCGAGAGGAUAUGCGGUGAUGGACAUGAGGAUCACCCAUGUUAGCGAUAGCAUUACGGUAGAAGGCUCUACAGCUGU [salish99_ss2_r3_093] (Eterna round: R96, puzzle: Same State 2)

>  <Result>
694 nM

$$$$
>  <Sequence Record>
UAGGAUCAACGAGGAUAUAAUAGGUUCUAUUCGUGAUAUUGCGUACAUGAGGAUCACCCAUGUUAUUAGAAGGCGUAUGGGUUU [JR_SSNG2_Sub085] (Eterna round: R96, puzzle: Same State NG 2)

>  <Result>
92.8 nM

$$$$
>  <Sequence Record>
AUUGCUAGCACAGGAUAUCAUGCGAAAAUUGCGUGAGAAGGGUGUACUCUGUCAUUGCCGGAGGACAUGAGGAUCACCCAUGUC [SameState NG1 #82] (Eterna round: R96, puzzle: Same State NG 1)

>  <Result>
37.5 nM

$$$$
